# protocol-notes: XTT assay, cytotoxicity of the hybrid molecules towards HEK-293
# Format: cell-based
# measurement-conditions: human, HEK-293 cells, 10 µM
readout-label: viability at 24 h, 10 µM (%)
The response must be a number in % with no trailing unit.

Look up viability at 24 h, 10 µM: NC(Cc1c[nH]c2ccccc12)C(=O)NC(Cc1c[nH]c2ccccc12)C(=O)O (stereo not shown)
94.3

----------
# protocol-notes: XTT assay, cytotoxicity of the hybrid molecules towards SH-SY5Y
# Type: cell-based
# measurement-conditions: human, SH-SY5Y cells, 250 µM
readout-label: viability at 24 h, 250 µM (%)
Response body: numeric value in %, unit text excluded.

Report viability at 24 h, 250 µM for NC(Cc1c[nH]c2ccccc12)C(=O)NC(Cc1c[nH]c2ccccc12)C(=O)O (stereo not shown) please.
88.4

----------
# protocol-notes: XTT assay, cytotoxicity of the hybrid molecules towards HEK-293
# Assay type: cell-based
# measurement-conditions: human, HEK-293 cells, 250 µM
readout-label: viability at 24 h, 250 µM (%)
# unit: % | format: bare number

Entry under review: NC(Cc1c[nH]c2ccccc12)C(=O)NC(Cc1c[nH]c2ccccc12)C(=O)O (stereo not shown) [WW] . Reported viability at 24 h, 250 µM?
83.7

----------
# protocol-notes: XTT assay, cytotoxicity of the hybrid molecules towards HEK-293
# Format: cell-based
# measurement-conditions: human, HEK-293 cells, 50 µM
readout-label: viability at 24 h, 50 µM (%)
Dear colleague, please return just the value in %, with no unit written.

Need viability at 24 h, 50 µM, item NC(Cc1c[nH]c2ccccc12)C(=O)NC(Cc1c[nH]c2ccccc12)C(=O)O (stereo not shown)
84.5

----------
# protocol-notes: XTT assay, cytotoxicity of the hybrid molecules towards SH-SY5Y
# Type: cell-based
# measurement-conditions: human, SH-SY5Y cells, 1 µM
readout-label: viability at 24 h, 1 µM (%)
Dear colleague, please return just the value in %, with no unit written.

Reported viability at 24 h, 1 µM for NC(Cc1c[nH]c2ccccc12)C(=O)NC(Cc1c[nH]c2ccccc12)C(=O)O (stereo not shown) : what is it?
100

----------
# protocol-notes: XTT assay, cytotoxicity of the hybrid molecules towards SH-SY5Y
# Assay type: cell-based
# measurement-conditions: human, SH-SY5Y cells, 50 µM
readout-label: viability at 24 h, 50 µM (%)
// units = %; emit number, no label

Fill in: viability at 24 h, 50 µM of NC(Cc1c[nH]c2ccccc12)C(=O)NC(Cc1c[nH]c2ccccc12)C(=O)O (stereo not shown) is ___
90.9
